So I've got a bunch of compounds here, and I need their activation at 10 µM values.
Study system: human GPR120 (Homo sapiens, UniProt Q5NUL3)
Construct: expressed in transfected cells
Sequence (Q5NUL3 whole entry): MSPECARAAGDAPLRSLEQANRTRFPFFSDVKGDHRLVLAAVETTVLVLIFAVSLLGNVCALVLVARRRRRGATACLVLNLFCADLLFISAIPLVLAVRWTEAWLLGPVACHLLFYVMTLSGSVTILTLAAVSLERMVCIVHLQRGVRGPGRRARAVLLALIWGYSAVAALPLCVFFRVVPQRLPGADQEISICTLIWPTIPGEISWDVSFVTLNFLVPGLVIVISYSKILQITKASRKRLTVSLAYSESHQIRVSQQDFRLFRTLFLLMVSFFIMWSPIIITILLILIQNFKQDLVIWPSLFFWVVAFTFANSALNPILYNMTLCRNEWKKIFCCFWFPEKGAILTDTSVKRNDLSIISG
Experiment summary: Measurement of intracellular calcium concentration (FLIPR), GPR120 agonist action
Assay type: cell-based
Run conditions: 10 μmol/l test compound, human GPR120 expression CHO cells, Fluo-4 AM, read-out: Agonistic activity at 10 μmol/l (%)
Counter-ions that a name gives are not always drawn.
Give bare numbers, in %.

[ask] Give measured activation at 10 µM for CC(Cc1ccc(-c2cc(O)no2)cc1)Oc1cccc(C(F)(F)F)c1 (stereo not drawn) [Example 13] (human GPR120 (Homo sapiens, UniProt Q5NUL3)).
[reply] 93

[ask] Give measured activation at 10 µM for CC(Cc1ccc(-c2cc(O)no2)cc1)Oc1ccccc1 (stereo not drawn) [Example 10] (human GPR120 (Homo sapiens, UniProt Q5NUL3)).
[reply] 93

[ask] Give measured activation at 10 µM for C[C@H](Cc1cccc(OC(F)(F)F)c1)Oc1ccc(-c2cc(O)no2)cc1 [Example 23] (human GPR120 (Homo sapiens, UniProt Q5NUL3)).
[reply] 101

[ask] Give measured activation at 10 µM for CC(C)Oc1cccc(C(C)N(C)Cc2ccc(-c3cc(O)no3)cc2)c1 (stereo not drawn) [Example 41] (human GPR120 (Homo sapiens, UniProt Q5NUL3)).
[reply] 87

[ask] Give measured activation at 10 µM for COc1cccc(OC(C)Cc2ccc(-c3cc(O)no3)cc2)c1 (stereo not drawn) [Example 12] (human GPR120 (Homo sapiens, UniProt Q5NUL3)).
[reply] 95

[ask] Give measured activation at 10 µM for CC(C)Oc1cccc(C(C)COc2ccc(-c3cc(O)no3)cn2)c1 (stereo not drawn) [Example 40] (human GPR120 (Homo sapiens, UniProt Q5NUL3)).
[reply] 95

[ask] Give measured activation at 10 µM for COc1cccc(C(F)(F)COc2ccc(-c3cc(O)no3)cc2)c1 [Example 3] (human GPR120 (Homo sapiens, UniProt Q5NUL3)).
[reply] 105

[ask] Give measured activation at 10 µM for CC(C)Oc1cccc(C(=O)C(C)Oc2ccc(-c3cc(O)no3)cc2)c1 (stereo not drawn) [Example 46] (human GPR120 (Homo sapiens, UniProt Q5NUL3)).
[reply] 91

Now let's try a different one.
[ask] Give measured activation at 10 µM for CC(C)Oc1cccc(CN(C)C(C)c2ccc(-c3cc(O)no3)cc2)c1 (stereo not drawn) [Example 49, Trifluoroacetate] (human GPR120 (Homo sapiens, UniProt Q5NUL3)).
[reply] 84
